# TGI listing for each entry below
# System: EKVX NSCLC
# assay.summary: NCI tumour cell line growth inhibition, 48 h

# annotated cases, reported TGI shown
- compound: "C[n+]1ccc(-c2cc[n+](C)cc2)cc1"
  TGI: "> 60.2 µM"
- compound: "CC1(C)N=C(N)N=C(N)N1c1cccc(CCCCc2ccccc2)c1"
  TGI: "20.6 µM"
- compound: "CC(C)(C)CC(C)(C)N=C(N)NO"
  TGI: "> 100 µM"

Could you tell me which TGI is on file for "C#C[C@@]1(O)[C@@H](CO)O[C@@H](n2ccc3c(N)ncnc32)[C@@H]1O" ? 5.43 µM

Moving on to "CN(C)/C=C(\C(=O)c1ccccc1)n1nc(-c2ccccc2)cc1-c1ccccc1" > 10 µM

Also, "CC(=O)c1nc2ccccc2n1CC(=O)c1ccc(Cl)cc1" please. > 100 µM

Another compound to look at: "Cn1c(Sc2ccc(-c3cccnc3)n2C)ccc1-c1cccnc1" > 56.8 µM

Next record, please: "COc1cc2ccnc(-c3c4ccccc4c(N)c4c(OC)c(OC)ccc34)c2cc1OC" 24.2 µM

Same lookup for "CO/N=C(/COc1c(-c2ccccc2)oc2ccccc2c1=O)c1ccc(OC)cc1" , please. > 100 µM

Next: CCOC(=O)CCC(NC(=O)c1ccc(Nc2nc3ccccc3n3cccc23)cc1)C(=O)OCC (stereo unspecified) > 100 µM

Next compound: Cc1ccccc1NC(=O)C1C(=O)N(c2ccccc2C)C(=O)/C1=N\N (stereo unspecified) > 100 µM

Also "C=CC(=O)N1CCC([C@@H]2CCNc3c(C(N)=O)c(-c4ccc(Oc5ccccc5)cc4)nn32)CC1" ? > 100 µM

Same question, "CC[C@H](C)[C@H](NC(=O)Nc1ccccc1)C(=O)N(C)[C@H](C[C@@H](OC(C)=O)c1nc(C(=O)N[C@@H](Cc2ccccc2)C[C@H](C)C(=O)OC)cs1)C(C)C" this time > 100 µM

Follow-up item: "C/C1=C\[C@H](C)C[C@H](C)OC(=O)C[C@H](c2ccc(O)cc2)NC(=O)[C@H](Cc2ccc(O)c(Br)c2)N(C)C(=O)[C@H](C)NC(=O)[C@@H](C)C1" > 25 µM

----------
# System: UACC-257 melanoma
# assay.summary: NCI tumour cell line growth inhibition, 48 h; in the data active = GI50 below about 0.43 µM; inactive = the rest
Respond using exactly one of the listed classes: active, inactive

Solved cases below.
- compound: "CN1CCN(Cc2ccc(NC(=O)c3nc4ccc5[nH]ncc5c4c4c3CCC4)cc2C(F)(F)F)CC1"
  assigned.label: "inactive"
- compound: "CC[C@H](C)[C@H](NC(=O)Nc1ccccc1)C(=O)N(C)[C@H](C[C@@H](OC(C)=O)c1nc(C(=O)N[C@@H](Cc2ccccc2)C[C@H](C)C(=O)OC)cs1)C(C)C"
  assigned.label: "inactive"
- compound: "COc1ccc2[nH]c(=O)c(/C=C/C(=O)/C=C/c3ccc(O)c(OC)c3)cc2c1"
  assigned.label: "inactive"
- compound: "O=C1c2cc3c(cc2[C@@H]2[C@H]1c1ccc([N+](=O)[O-])cc1C(=O)N2CCCCl)OCO3"
  assigned.label: "active"
- compound: "O=C(NNc1ccccc1)OCc1ccccc1"
  assigned.label: "inactive"

Hello, I am checking results. What call was entered for "O=c1oc2ccc(Cl)cc2c(=O)n1-c1cc(C(F)(F)F)cc(C(F)(F)F)c1" ? active

Try this compound next: "COc1cc2c(c(OC)c1OC)-c1ccc(SC)c(=O)cc1[C@@H](NCc1cccc(C#N)c1)CC2" inactive

Then "CC1(C)CC(OCCCC[P+](c2ccccc2)(c2ccccc2)c2ccccc2)CC(C)(C)N1O" ? active

Where do these numbers come from? They come from PubChem BioAssay (NCI).
